viability, T/C for assorted compounds
Test system: 186277-243-T-J2-PDC complex spheroid viability
Test: Anticancer human tumor 186277-243-T-J2-PDC patient-derived colon adenocarcinoma cell line growth inhibition [POLQ]
Settings: second compound 0.0316 µM; first compound 0.01 µM; hits give low values
Attribute measured: viability, T/C (%)

Compound	Attribute measured	Reported result
C=CCn1c(=O)c2cnc(Nc3ccc(N4CCN(C)CC4)cc3)nc2n1-c1cccc(C(C)(C)O)n1 + Cc1cccc(N(C)C(=O)C2C(O)CCN2c2nc(C)cc(C(F)(F)F)c2C#N)c1	viability, T/C	102
CCc1c2c(nc3ccc(O)cc13)-c1cc3c(c(=O)n1C2)COC(=O)[C@]3(O)CC + Cc1cccc(N(C)C(=O)C2C(O)CCN2c2nc(C)cc(C(F)(F)F)c2C#N)c1	viability, T/C	48.5
CC[C@@]1(O)C(=O)OCc2c1cc1n(c2=O)Cc2cc3c(CN(C)C)c(O)ccc3nc2-1 + COC1C(OC(N)=O)C(O)C(Oc2ccc3c(O)c(NC(=O)c4ccc(O)c(CC=C(C)C)c4)c(=O)oc3c2C)OC1(C)C	viability, T/C	114
CC[C@@]1(O)C(=O)OCc2c1cc1n(c2=O)Cc2cc3c(CN(C)C)c(O)ccc3nc2-1 + Nc1ccc(C#CCN(C(=O)Cc2ncc(C(F)(F)F)cc2C(F)(F)F)c2ccc(F)cc2)nn1	viability, T/C	114
CC[C@@]1(O)C(=O)OCc2c1cc1n(c2=O)Cc2cc3c(CN(C)C)c(O)ccc3nc2-1 + Cc1cccc(N(C)C(=O)C2C(O)CCN2c2nc(C)cc(C(F)(F)F)c2C#N)c1	viability, T/C	104
COc1cccc(OCCCN)c1-c1cc(Nc2cnc(C#N)cn2)n[nH]1 + Cc1cccc(N(C)C(=O)C2C(O)CCN2c2nc(C)cc(C(F)(F)F)c2C#N)c1	viability, T/C	14.9
COc1cccc(OCCCN)c1-c1cc(Nc2cnc(C#N)cn2)n[nH]1 + COC1C(OC(N)=O)C(O)C(Oc2ccc3c(O)c(NC(=O)c4ccc(O)c(CC=C(C)C)c4)c(=O)oc3c2C)OC1(C)C	viability, T/C	5.13
CCc1c2c(nc3ccc(O)cc13)-c1cc3c(c(=O)n1C2)COC(=O)[C@]3(O)CC + COC1C(OC(N)=O)C(O)C(Oc2ccc3c(O)c(NC(=O)c4ccc(O)c(CC=C(C)C)c4)c(=O)oc3c2C)OC1(C)C	viability, T/C	44.3
Cn1ncnc1[C@H]1c2n[nH]c(=O)c3cc(F)cc(c23)N[C@@H]1c1ccc(F)cc1 + Cc1cccc(N(C)C(=O)C2C(O)CCN2c2nc(C)cc(C(F)(F)F)c2C#N)c1	viability, T/C	106
COc1cccc(OCCCN)c1-c1cc(Nc2cnc(C#N)cn2)n[nH]1 + Nc1ccc(C#CCN(C(=O)Cc2ncc(C(F)(F)F)cc2C(F)(F)F)c2ccc(F)cc2)nn1	viability, T/C	13.1
CCc1c2c(nc3ccc(O)cc13)-c1cc3c(c(=O)n1C2)COC(=O)[C@]3(O)CC + Nc1ccc(C#CCN(C(=O)Cc2ncc(C(F)(F)F)cc2C(F)(F)F)c2ccc(F)cc2)nn1	viability, T/C	87.4

====

Test system: 186277-243-T-J2-PDC complex spheroid viability
Assay: Anticancer human tumor 186277-243-T-J2-PDC cell line growth inhibition [POLQ]; active means viability on the fitted dose curve at most 10% of control; inactive means the rest;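 also: spheroids exposed to compounds for seven days; 100% = DMSO vehicle control viability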
Conditions: second compound 0.1 µM; first compound 0.1 µM
Outcomes: 1.0 = active, 0.0 = inactive

Compound	Label
CC(C)n1c(=O)n(C)c2cnc3cc(F)c(-c4ccc(OCCCN5CCCCC5)nc4)cc3c21 + Nc1ccc(C#CCN(C(=O)Cc2ncc(C(F)(F)F)cc2C(F)(F)F)c2ccc(F)cc2)nn1	0.0
Cn1ncnc1[C@H]1c2n[nH]c(=O)c3cc(F)cc(c23)N[C@@H]1c1ccc(F)cc1 + Nc1ccc(C#CCN(C(=O)Cc2ncc(C(F)(F)F)cc2C(F)(F)F)c2ccc(F)cc2)nn1	0.0
CCc1cc2c(N3CCc4c(cc(Cn5ccnc5)cc4-c4cn(C)nc4C(F)(F)F)C3=O)ccnc2c(OC)n1 + Nc1ccc(C#CCN(C(=O)Cc2ncc(C(F)(F)F)cc2C(F)(F)F)c2ccc(F)cc2)nn1	0.0
COc1cccc(OCCCN)c1-c1cc(Nc2cnc(C#N)cn2)n[nH]1 + Nc1ccc(C#CCN(C(=O)Cc2ncc(C(F)(F)F)cc2C(F)(F)F)c2ccc(F)cc2)nn1	1.0

Taken from PubChem BioAssay AID1963854.
